# ASSAY_OVERVIEW: Toxicity liver stage against HepG2, at 10uM
# Format: cell-based
# Set-up: test concentration 10 uM, cell line HepG2-A16-CD81EGFP
# PROTOCOL_CONDITIONS: human, HepG2-A16-CD81EGFP cells; read-out: INHIBITION
MEASUREMENT_TYPE: cytotoxicity at 10 µM (%)
Give the number; % is assumed, so skip it.

The molecule identified as COCCNC(=O)[C@H]1CO[C@H]2CCN(Cc3cccs3)C[C@H]2C1 registered its cytotoxicity at 10 µM at -108

Per the record, O=C(c1cc(F)cc2[nH]cnc12)N1CCCC1Cn1cccn1 (stereo not drawn) has cytotoxicity at 10 µM of 7.39

Short answer for Cc1cnn(CC2CN(c3ncnc4c3CCC4)CCO2)c1 (stereo not drawn) : cytotoxicity at 10 µM was 56.5

Briefly, cytotoxicity at 10 µM measured for CS(=O)(=O)NCc1cncc2c1CCN(C(=O)c1cccnc1)C2 : 5.12

Form field cytotoxicity at 10 µM, entry CC(C)c1nc2c(n1C)CCN(Cc1nc(-c3cccnc3)no1)C2 : -1.43

molecule CCC1CN(CC(=O)NCCOC)CCO1 (stereo not drawn) , cytotoxicity at 10 µM observed: -12.9

get_value(item= COCCN1C(=O)C2(CCC(C(=O)Nc3ccc(F)cc3)CC2)N=C1C (stereo not drawn) , readout=cytotoxicity at 10 µM) returns 9.7

molecule CCCc1cc(C(=O)NCCN2CCCS2(=O)=O)[nH]n1 , cytotoxicity at 10 µM observed: -7.13

The molecule listed as Cn1nc(C2CCNCC2)c2c(C(=O)NC3CC3)cc(C3CC3)nc21 shows cytotoxicity at 10 µM equal to 16.2

// sample CCN(CC)c1ccc(CNC(=O)c2ccccn2)cn1 , its cytotoxicity at 10 µM was 10.8

Reported cytotoxicity at 10 µM for CC1COCCN1C(=O)Cc1cc(Cl)c2c(c1)OCCO2 (stereo not drawn) was -4.29

Given item Cc1ccc(CNCc2nnc3n2CCCC3C(F)(F)F)o1 (stereo not drawn) , the value recorded as its cytotoxicity at 10 µM is 19.5

The measured cytotoxicity at 10 µM associated with Cc1c(NC(C)C(C)C)cccc1C(=O)NCc1cnn(C)c1 (stereo not drawn) reads 27

# molecule COc1cccc(C(O)CN2CCN(C(=O)c3ccsc3)CC2)c1 (stereo not drawn) ; its cytotoxicity at 10 µM = -48.1

Looking up Cn1ccnc1CN1CCC2(CC1)COCCN(c1ncccn1)C2 , I see its cytotoxicity at 10 µM listed as 11.3

The molecule O=S(=O)(c1ccccc1)N1CCC[C@]2(C[C@@H](OCC3CC3)CO2)C1 showed cytotoxicity at 10 µM equal to -69.2

The value of cytotoxicity at 10 µM measured for the molecule Cc1nc2cc(O)nn2c(C)c1CCC(=O)NCc1cc(Br)cs1 turned out to be -3.04

// sample Nc1nc2c(c(NCc3nccs3)n1)CCN(CC1CCCC1)CC2 , its cytotoxicity at 10 µM was 4.36

// field: cytotoxicity at 10 µM; key: O=C(c1ccsc1)N1CCc2c(nc(-c3ccncc3)[nH]c2=O)C1 ; value = -1.67

According to the records, this molecule CC(C)c1nc(C2CCCN2CCCc2nc3ccccc3o2)no1 (stereo not drawn) displays cytotoxicity at 10 µM of -8.43

Entry under test: CC(C)N1CCC(N2CCN(C3CCC3)CC2CCO)CC1 (stereo not drawn) . Its cytotoxicity at 10 µM was -12.5

Lab note: Cc1ccccc1CN1CCCN(C(=O)c2ccn(C)c(=O)c2)CC1 gave cytotoxicity at 10 µM of 1.62

Query CCc1nnc(CN2CCC3(CC2)Nc2ccccc2NC3=O)o1 yields cytotoxicity at 10 µM of -6.96

// cytotoxicity at 10 µM lookup, molecule = CN(C)CC1CSCCCN1C(=O)c1ccc(-n2cccc2)cc1 (stereo not drawn) , result: 10

In plain terms, C[C@@H]1CN(C2CCOC2)C[C@]12CCN(Cc1cccnc1)C2=O (stereo partly drawn) has a documented cytotoxicity at 10 µM of -106

So, O=C(c1c[nH]c2ccccc2c1=O)N1CCSCC1 ? Its cytotoxicity at 10 µM was -5.63

# cytotoxicity at 10 µM of NC(=O)C1CCN(c2nc3nccc(-c4cccnc4)c3c(=O)[nH]2)CC1 = 12.1

Reported cytotoxicity at 10 µM for Cc1ccc(-c2ccnc(NC(C)c3c(C)n[nH]c3C)n2)c(C)n1 (stereo not drawn) was 4.51

cytotoxicity at 10 µM recorded for this molecule, O=C(NCCNC(=O)C1CCCCC1)NCCn1cccc1 , is 2.89

Field cytotoxicity at 10 µM (entry CC(C)Cc1ccc(S(=O)(=O)Nc2ccc(=O)n(C)c2)cc1 ) reads 46.3

Per the records, this molecule ( O=C(Cn1cccnc1=O)NC(Cc1ccsc1)c1nccs1 (stereo not drawn) ) has cytotoxicity at 10 µM equal to -4.44

The recorded cytotoxicity at 10 µM for entry Cc1nnc(NCc2ccccc2S(=O)(=O)N(C)C)c(C#N)c1C equals -8.51

// CCCc1cc(NCCN2CCNC2=O)n2nccc2n1 : cytotoxicity at 10 µM value = -6.42

Reported cytotoxicity at 10 µM ( Cc1c(C(C)NC(=O)C2CCCC2)cnn1C (stereo not drawn) ) = -10.9

According to the records, this molecule Cc1cc(F)ccc1-n1cc(O)c(C(N)=O)n1 displays cytotoxicity at 10 µM of -9.55

CCOc1c(F)cccc1C(=O)N(c1cccnc1)C(C)C has a reported cytotoxicity at 10 µM of 1.52

Recorded result, CC(C)c1nc(/C=C/c2cnn(-c3ccc(Cl)cc3)c2)ncc1C(=O)O , cytotoxicity at 10 µM: -6.21

Lab note: CCc1cc(NCCc2cc(F)cc(F)c2)n2nccc2n1 gave cytotoxicity at 10 µM of 19.5

Memo: CSCC(=O)Nc1cccc(Oc2ccccn2)c1 , reported cytotoxicity at 10 µM: -6.1

Form: molecule = Cc1cnn(CC2CN(CC(=O)Nc3sccc3C#N)CCO2)c1 (stereo not drawn) ; cytotoxicity at 10 µM = -0.935

The value of cytotoxicity at 10 µM measured for the molecule COCC(=O)N1CCCC2(CCN(c3ccsc3)C2=O)C1 (stereo not drawn) turned out to be 6.66

The molecule listed as COc1ccc(OCc2nc(C(=O)N3CC(O)C3)co2)cc1 shows cytotoxicity at 10 µM equal to -9.29

Entry O=C(CCc1ccccn1)NCC(O)c1ccc(Cl)cc1Cl (stereo not drawn) ; cytotoxicity at 10 µM = 8.54

cytotoxicity at 10 µM for Cn1c2ncccc2c(=O)n1CC(=O)NCCC1=CCCCC1 is 19

Note to self: cytotoxicity at 10 µM recorded for COCC1CN(S(=O)(=O)c2ccccc2)Cc2ncnn2C1 (stereo not drawn) was -117

Short answer for C1CN(CC2CCOCC2)Cc2c(COCC3CC3)nnn2C1 : cytotoxicity at 10 µM was -130

Consider O=C(c1c[nH]nn1)N1CCCC1C1CCCCC1 (stereo not drawn) . Its measured cytotoxicity at 10 µM is 3.81

Per the records, this molecule ( CC(CN1CCC2(CC1)c1nc[nH]c1CCN2S(C)(=O)=O)C(F)(F)F (stereo not drawn) ) has cytotoxicity at 10 µM equal to -8.51
